Could you please report measured EC50 for the items listed next?
experimental_system: T1, ITGA2 protein on the surface of human tumor cells (human, UniProt P17301 30-1181)
T1 construct: whole, on cells; Endogenously expressed; the cell line is named under assay or readout; also called Integrin alpha-2; ITGA2-positive HuCCT1 cells
T1 sequence (looked up): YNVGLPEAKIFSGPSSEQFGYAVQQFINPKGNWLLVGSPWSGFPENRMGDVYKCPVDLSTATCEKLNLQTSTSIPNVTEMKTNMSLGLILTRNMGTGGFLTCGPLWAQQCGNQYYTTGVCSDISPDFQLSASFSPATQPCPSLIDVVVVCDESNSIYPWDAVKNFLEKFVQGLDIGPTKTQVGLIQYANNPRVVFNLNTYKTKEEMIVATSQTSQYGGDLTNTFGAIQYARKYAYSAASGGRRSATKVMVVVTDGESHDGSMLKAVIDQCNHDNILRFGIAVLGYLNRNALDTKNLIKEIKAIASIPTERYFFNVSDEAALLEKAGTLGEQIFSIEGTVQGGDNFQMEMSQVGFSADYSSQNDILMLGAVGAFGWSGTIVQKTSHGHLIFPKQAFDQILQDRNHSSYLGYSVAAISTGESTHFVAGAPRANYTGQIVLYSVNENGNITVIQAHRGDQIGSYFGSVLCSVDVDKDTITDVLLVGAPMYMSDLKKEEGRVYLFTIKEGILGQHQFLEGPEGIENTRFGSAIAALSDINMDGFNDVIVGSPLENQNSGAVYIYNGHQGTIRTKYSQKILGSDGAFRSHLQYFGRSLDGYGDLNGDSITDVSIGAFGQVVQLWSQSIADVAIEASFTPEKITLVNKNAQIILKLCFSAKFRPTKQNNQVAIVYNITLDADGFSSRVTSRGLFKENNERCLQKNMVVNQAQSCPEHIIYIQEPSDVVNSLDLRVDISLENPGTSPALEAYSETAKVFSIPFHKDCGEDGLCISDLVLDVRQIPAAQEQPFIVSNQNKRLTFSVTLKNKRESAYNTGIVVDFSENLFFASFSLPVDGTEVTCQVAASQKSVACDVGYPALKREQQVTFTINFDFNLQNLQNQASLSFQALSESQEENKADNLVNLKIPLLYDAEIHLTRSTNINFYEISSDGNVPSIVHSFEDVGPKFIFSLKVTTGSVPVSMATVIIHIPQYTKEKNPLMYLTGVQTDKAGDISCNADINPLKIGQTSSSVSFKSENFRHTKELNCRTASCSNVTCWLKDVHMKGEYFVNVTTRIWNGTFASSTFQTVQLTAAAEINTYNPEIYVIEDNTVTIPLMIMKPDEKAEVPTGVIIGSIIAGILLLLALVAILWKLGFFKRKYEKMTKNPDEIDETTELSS
method_description: flow cytometry on HuCCT1 cells
One number for each entry, in pM.

Worked set:
## Task Look up EC50: Humanized antibody FS002-A103-H4L4 (antibody, human IgG1, kappa, V domains shown, Humanized IgG1 kappa) VH: QVQLVQSGAEVKKPGASVKVSCKASGYTFTDYEMHWVRQAPGQGLEWMGVIDPETGGTTYNQKFQGRVTLTADTSISTAYMELSRLRSDDTAVYYCSRSGYYVSSYESYAMDYWGQGTTVTVSS VL: EIVMTQSPPTLSLSPGERVTLSCRASENVGTYVSWYQQKPGQAPRLLIYGASTRESGIPARFSGSGSGTDFTLTISSLQPEDFAVYYCQNDYSYPFTFGGGTKLEIKR
## Result 300

## Task Lookup Chimeric mouse antibody FS002-A226 (antibody, human IgG1, kappa, V domains shown, Chimeric) VH: QLQLQQSGAELVRPGASVTLSCKASGYTFTDYEIHWVKQTPVHGLEWIGAIDPETGGTNYNQKFNDKATLTADKSSSTAYMDLRSLTSEDSAVYYCSRSGYYVSNYESYAMDYWGQGTSVTVSS VL: DIKITQSPSSMYASLGERVTITCKASQDIKSYLSWYQQKPGSSPRLLIYDTSNLASGVPVRFSGRGSGTSYSLTISRMEAEDAATYYCQQWSSYPFTFGSGTKLEIKR
## Result 580

Consider the record given below.
## Task Look up EC50: Chimeric mouse antibody FS002-A208 (antibody, human IgG1, kappa, V domains shown, Chimeric) VH: QVQLQQSGAELVRPGASVTLSCKASGYTFTDYEIHWVKQTPVHGLEWIGAIDPETGGTNYNQKFNDKATLTADKSSSTAYMDLRSLTSEDSAVYYCSRSGYYVSNYESYAMDYWGQGTSVTVSS VL: DIVMTQSQKFMSTSVGDRVSVTCKASQNVGTNVAWYQQKPGQSPKTLIYSASYRFSGVPDRFTGSGSGTDFTLTINNVQSEDLADYFCQQYNIYPLSFGAGTKLELKR
## Result 760
